assayed-system: DNA-PK (Homo sapiens, UniProt P78527)
measurement-description: DNA-PK inhibition assay (radiometric 33P-ATP kinase assay)
Type: biochemical
measurement-conditions: Table 1, 100 μM ATP, competitive tight-binding fit
measured-attribute: Ki

Guide cases for Ki, answers given:
INSERT INTO measurements (compound, measured_attribute, endpoint_result) VALUES
  ('Cc1nccc(N[C@H]2CC[C@@H](Oc3cc(N4CCOCC4)cc4nc(C)ncc34)CC2)n1 [Compound 12]', 'Ki', '0.001 to 0.01 µM'),
  ('Cn1ccc(N[C@H]2CC[C@@H](Oc3cc(N4CCOCC4)cc4ncncc34)CC2)n1 [Compound 24]', 'Ki', '< 0.001 µM');

Proceeding to the next compound to report its Ki.
Data request: I have this compound here, CNC(=O)c1ccnc(N[C@H]2CC[C@@H](Oc3cc(N4CCOCC4)cc4ncnc(C)c34)CC2)n1 [Compound 13] , and I need its recorded Ki.
Data returned: < 0.001 µM
